System: U87MG pLVX-IDH2 R140Q-neo cells
Test: U87MG pLVX-IDH2 R140Q-neo cell based assay, 2-HG in media by LC-MS at 48 hours
Details: Homo sapiens, U-87 MG
Overview of recorded IC50 for various molecules

Field: example entries. Status: answers known.
1. CC(C)Nc1nc(Nc2cc(F)cc(F)c2)nc(-c2nccc(C(F)(F)F)n2)n1 [Compound 455]
< 100 nM
2. CC(C)Nc1nc(Nc2cncc(C(F)(F)F)c2)nc(-c2cccc(Cl)n2)n1 [Compound 394]
< 100 nM
3. FC(F)(F)c1cc(Nc2nc(NCC3CC3)nc(-c3cccc(C(F)(F)F)n3)n2)ccn1 [Compound 597]
< 100 nM
4. CCCn1cc(Nc2nc(NC(C)C)nc(-c3cccc(C(F)(F)F)n3)n2)cn1 [Compound 555]
< 100 nM
5. c1ccc(Nc2nc(NC3COC3)nc(-c3ccccc3)n2)cc1 [Compound 175]
< 100 nM

Case CC(C)Nc1nc(Nc2ccccc2)nc(-c2cccc(Cl)n2)n1 [Compound 229] , U87MG pLVX-IDH2 R140Q-neo cells, IC50 recorded as < 100 nM

The reported U87MG pLVX-IDH2 R140Q-neo cells IC50 of C#Cc1cccc(-c2nc(Nc3cccc(S(C)(=O)=O)c3)nc(NC(C)C)n2)n1 [Compound 360] is 100 to 1000 nM

Result for COC(=O)Nc1cccc(-c2nc(Nc3ccnc(C(F)(F)F)c3)nc(NC(C)C)n2)n1 [Compound 679] , tested on U87MG pLVX-IDH2 R140Q-neo cells, IC50: 100 to 1000 nM

====

Target: IDH2 R172K (Homo sapiens, UniProt P48735, R172K)
Sequence (P48735 40-452 R172K): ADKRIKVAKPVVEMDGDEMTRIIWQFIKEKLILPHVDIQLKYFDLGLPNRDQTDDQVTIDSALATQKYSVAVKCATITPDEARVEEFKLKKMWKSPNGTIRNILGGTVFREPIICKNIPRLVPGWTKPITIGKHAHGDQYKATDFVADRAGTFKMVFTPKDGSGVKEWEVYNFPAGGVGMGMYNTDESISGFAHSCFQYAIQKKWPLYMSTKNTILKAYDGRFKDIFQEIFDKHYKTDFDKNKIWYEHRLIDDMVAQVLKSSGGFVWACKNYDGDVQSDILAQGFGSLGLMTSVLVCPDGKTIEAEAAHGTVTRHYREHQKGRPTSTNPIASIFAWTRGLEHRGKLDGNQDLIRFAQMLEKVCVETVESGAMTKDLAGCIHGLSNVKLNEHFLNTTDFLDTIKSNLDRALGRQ
Test: IDH2 R172K enzymatic assay (NADPH cofactor depletion, diaphorase/resazurin readout)
Settings: read-out: Enz R172K
pIC50: −log10 of the molar value.
Metric: pIC50

1. CC(C)Nc1nc(Nc2ccc(F)nc2)nc(-c2nccc(C(F)(F)F)n2)n1
6.00 to 7.00

pIC50 in this record for CC(C)Nc1nc(Nc2ccnc(Cl)c2)nc(-c2ccccc2)n1 : > 7.00

COc1cc(F)cc(-c2nc(Nc3ccnc(C(F)(F)F)c3)nc(NC(C)C)n2)c1 has a reported pIC50 of 5.00 to 6.00

Field pIC50 (entry CC(C)Nc1nc(Nc2ccon2)nc(-c2ccccc2)n1 ) reads 6.00 to 7.00

====

System: U87MG pLVX-IDH2 R140Q-neo cells
Assay: U87MG pLVX-IDH2 R140Q-neo cell based assay, 2-HG in media by LC-MS at 48 hours
Settings: Homo sapiens, U-87 MG
Entries and their measured IC50 follow.

1) CC(F)(F)c1cccc(-c2nc(NCC3CC3)nc(Nc3ccnc(C(C)(C)C#N)c3)n2)n1 [Compound 618]
< 100 nM
2) CC(C)Nc1nc(Nc2ccccc2)nc(-c2ccc(F)cc2F)n1 [Compound 118]
100 to 1000 nM
3) CC(Nc1nc(Nc2ccnc(C(F)(F)F)c2)nc(-c2cccc(N)n2)n1)C(F)(F)F (centres unmarked) [Compound 694]
< 100 nM
4) COc1ccc(F)c(-c2nc(Nc3ccnc(C(F)(F)F)c3)nc(NC(C)C)n2)c1 [Compound 630]
< 100 nM
5) CC(C)Nc1nc(Nc2ccncc2)nc(-c2cccc(Cl)c2)n1 [Compound 185]
100 to 1000 nM

Next compound, please.
# CC(C)Nc1nc(Nc2ccnc(C(C)(C)C#N)c2)nc(-c2cccc(C(C)(F)F)n2)n1 [Compound 677] with U87MG pLVX-IDH2 R140Q-neo cells: IC50 is < 100 nM
